Target: human TASK-2 K+ channel, SEQ ID NO: 28 (Homo sapiens, UniProt O95279)
Construct: expressed in transfected cells; host or cells: COS cells transiently transfected with pIREScd8-TASK-2 (DEAE-dextran)
Sequence (O95279 whole entry): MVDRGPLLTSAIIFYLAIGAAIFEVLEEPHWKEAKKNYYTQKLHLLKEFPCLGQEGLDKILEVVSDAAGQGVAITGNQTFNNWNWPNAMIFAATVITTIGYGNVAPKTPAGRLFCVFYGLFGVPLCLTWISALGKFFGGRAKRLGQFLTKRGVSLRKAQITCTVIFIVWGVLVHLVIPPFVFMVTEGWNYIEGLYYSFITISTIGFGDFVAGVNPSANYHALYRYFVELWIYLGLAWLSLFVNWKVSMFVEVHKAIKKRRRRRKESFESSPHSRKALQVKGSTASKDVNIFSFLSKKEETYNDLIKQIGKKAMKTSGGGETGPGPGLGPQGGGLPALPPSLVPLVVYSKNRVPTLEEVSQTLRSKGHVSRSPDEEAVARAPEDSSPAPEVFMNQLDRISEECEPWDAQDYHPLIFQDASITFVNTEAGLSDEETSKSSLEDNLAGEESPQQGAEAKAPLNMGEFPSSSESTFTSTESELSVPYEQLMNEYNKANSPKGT
Test: TASK-2 currents elicited by voltage pulses to +50 mV, whole cell recording in transfected COS cells
Type: cell-based
VALUE KIND: IC50

Prompt: Give me measured IC50, please, for this compound: C=C[C@H]1C[N@@]2CC[C@H]1C[C@H]2[C@H](O)c1ccnc2ccc(OC)cc12
Completion: 22.4 µM
